target: pY705-STAT3 in PBMC (Homo sapiens); construct: Cryopreserved Peripheral Blood Mononuclear Cells (PBMC) are from AllCells; host or cells: cryopreserved PBMC; experiment: MSD-pSTAT-PBMC Assay (pSTAT3, IL-6 stimulated); assay type: cell-based; conditions: PBMC, compound 3 hrs, then 10 ng/mL IL-6 for 10 min; Table 115; read-out: STAT3
Sequence (P40763 whole entry): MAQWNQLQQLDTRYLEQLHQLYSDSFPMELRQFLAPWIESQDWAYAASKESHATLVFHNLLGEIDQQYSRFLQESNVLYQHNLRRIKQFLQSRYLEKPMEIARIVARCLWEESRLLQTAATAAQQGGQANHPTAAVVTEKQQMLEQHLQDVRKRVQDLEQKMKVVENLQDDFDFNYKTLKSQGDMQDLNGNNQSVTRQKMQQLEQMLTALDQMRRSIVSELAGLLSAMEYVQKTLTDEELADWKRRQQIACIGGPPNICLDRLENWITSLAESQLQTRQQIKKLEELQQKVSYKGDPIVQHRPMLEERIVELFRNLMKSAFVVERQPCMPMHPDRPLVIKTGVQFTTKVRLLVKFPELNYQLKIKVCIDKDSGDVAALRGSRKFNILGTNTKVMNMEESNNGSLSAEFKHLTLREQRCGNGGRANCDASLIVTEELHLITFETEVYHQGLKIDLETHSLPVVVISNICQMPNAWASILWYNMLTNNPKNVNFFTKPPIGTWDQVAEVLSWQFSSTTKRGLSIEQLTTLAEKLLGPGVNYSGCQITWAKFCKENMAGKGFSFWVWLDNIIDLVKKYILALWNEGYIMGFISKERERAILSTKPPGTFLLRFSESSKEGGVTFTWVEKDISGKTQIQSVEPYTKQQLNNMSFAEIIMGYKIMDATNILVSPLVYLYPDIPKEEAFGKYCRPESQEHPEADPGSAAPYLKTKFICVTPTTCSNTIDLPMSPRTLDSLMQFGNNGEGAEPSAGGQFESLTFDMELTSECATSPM
pIC50: −log10 of the molar value.
MEASURE_NAME: pIC50

COMPOUND	READOUT_VALUE
CCCOC(=O)[C@H](C)NP(=O)(Oc1ccccc1)C(F)c1ccc2sc(C(=O)N[C@H]3CCC[C@H]4CC[C@@H](C(=O)N5CC(c6cccc(C#N)n6)C5)N4C3=O)cc2c1 (stereo partly drawn)	> 7.00

Each compound below has a reported value. Please supply its pIC50.
1. CCCOC(=O)[C@H](C)NP(=O)(Oc1ccccc1)C(F)c1ccc2sc(C(=O)N[C@H]3CCCC[C@H]4CC[C@@H](C(=O)N5C[C@@H](c6cccc(OC)c6)[C@H](C#N)C56CC6)N4C3=O)cc2c1 (single isomer, unassigned)
2. CCCOC(=O)[C@H](C)NP(=O)(Cc1ccc2sc(C(=O)N[C@H]3CCC[C@H]4CC[C@@H](C(=O)N5CC(c6c(OC)ccnc6F)C5)N4C3=O)cc2c1)Oc1ccccc1 (stereo partly drawn)

Response:
["< 5.52", "5.52 to 6.00"]

Each compound below has a reported value. Please supply its pIC50.
1. CC(C)CC(=O)SCCOP(=O)(OCOC(=O)O[C@@H]1CCOC1)C(F)(F)c1ccc2sc(C(=O)N[C@H]3CCC[C@H]4CC[C@@H](C(=O)N5CC(c6ncccn6)C5)N4C3=O)cc2c1 (stereo partly drawn)
2. COc1ccncc1C1CN(C(=O)[C@@H]2CC[C@@H]3CCC[C@H](NC(=O)c4cc5cc([C@H](F)[P@@](=O)(N[C@@H](C)C(=O)OCc6ccccc6)Oc6ccccc6)ccc5s4)C(=O)N32)C1 (single isomer, unassigned) [Compound 1050]
3. CCCOC(=O)[C@H](C)N[P@](=O)(Oc1ccccc1)[C@H](F)c1ccc2sc(C(=O)N[C@H]3CCC[C@H]4CC[C@@H](C(=O)N5CC(c6cnccc6F)C5)N4C3=O)cc2c1 (single isomer, unassigned) [Compound 998]
4. CCCOC(=O)[C@H](C)NP(=O)(Oc1ccccc1)C(F)c1ccc2sc(C(=O)N[C@H]3CCC[C@H]4CC[C@@H](C(=O)N5CC(c6cnccc6OC)C5)N4C3=O)cc2c1 (stereo partly drawn)
5. COCCOCC(=O)SCCOP(=O)(OCCSC(=O)COCCOC)C(F)(F)c1ccc2sc(C(=O)N[C@H]3CCC[C@H]4CC[C@@H](C(=O)N5CC(c6cccnc6)C5)N4C3=O)cc2c1
6. CC(C)CC(=O)SCCOP(=O)(OCOC(=O)O[C@@H]1CCOC1)C(F)(F)c1ccc2sc(C(=O)N[C@H]3CCCC[C@H]4CC[C@@H](C(=O)N5C[C@H](c6cc[nH]c(=O)c6)[C@@H](C#N)C5)N4C3=O)cc2c1 (single isomer, unassigned)

Response:
> 7.00
6.00 to 7.00
> 7.00
> 7.00
> 7.00
5.52 to 6.00

====

Target: Recombinant STAT6 protein (STAT6 (W123-T658)) (Homo sapiens, UniProt P42226)
Construct: Recombinant STAT6 protein (STAT6 (W123-T658))
Sequence (P42226 123-658): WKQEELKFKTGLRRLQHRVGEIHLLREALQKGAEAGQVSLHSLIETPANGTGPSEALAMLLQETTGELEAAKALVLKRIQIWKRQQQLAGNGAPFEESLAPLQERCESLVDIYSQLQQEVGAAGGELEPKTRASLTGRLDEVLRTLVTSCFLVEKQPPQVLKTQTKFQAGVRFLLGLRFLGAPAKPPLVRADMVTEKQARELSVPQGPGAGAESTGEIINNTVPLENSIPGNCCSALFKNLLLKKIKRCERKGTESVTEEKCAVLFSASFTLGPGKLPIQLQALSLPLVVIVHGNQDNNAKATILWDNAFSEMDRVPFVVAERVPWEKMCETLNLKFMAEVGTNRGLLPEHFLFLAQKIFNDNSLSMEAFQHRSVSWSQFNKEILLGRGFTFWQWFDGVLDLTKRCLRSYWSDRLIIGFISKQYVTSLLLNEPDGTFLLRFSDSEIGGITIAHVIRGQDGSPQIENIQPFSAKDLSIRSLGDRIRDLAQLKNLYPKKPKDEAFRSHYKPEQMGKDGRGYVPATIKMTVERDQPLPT
Experiment: STAT6 Fluorescence Polarization (FP) Assay
Assay type: binding
Settings: STAT6 (W123-T658) 250 nM, probe 5-FAM-Ap[…]-NH2 2 nM, 45-minute incubation; read-out: STAT6 (FP assay IC50 class)
MEASURE_NAME: IC50

COMPOUND	MEASURE_NAME	READOUT_VALUE
O=C(N[C@@H]1C(=O)N2[C@@H](CCC[C@H]1C1CC1)CC[C@H]2C(=O)N1CC(c2cccnc2)C1)c1cc2cc(C(F)(F)P(=O)(O)O)ccc2s1 [Compound 233]	IC50	3 to 30 µM
COc1c(C2CN(C(=O)[C@@H]3CC[C@@H]4CCC[C@H](NC(=O)c5cc6cc([C@@H](F)P(=O)(O)O)ccc6s5)C(=O)N43)C2)ccnc1Cl (single isomer, unassigned) [Compound 698]	IC50	3 to 30 µM
O=C(N[C@H]1CCC[C@H]2CC[C@@H](C(=O)N3CC(c4cnccc4N4CCC4)C3)N2C1=O)c1cc2cc([C@H](F)P(=O)(O)O)ccc2s1 (single isomer, unassigned) [Compound 742]	IC50	0.3 to 3 µM
C[C@H]1C[C@H]2CC[C@@H](C(=O)N3C[C@@H](C#N)[C@H](c4ccccc4)C3)N2C(=O)[C@@H](NC(=O)c2cc3cc(C(F)(F)P(=O)(O)O)ccc3s2)C1 (single isomer, unassigned) [Compound 782]	IC50	0.3 to 3 µM
Cn1cnnc1C1CN(C(=O)[C@@H]2CC[C@@H]3CCC[C@H](NC(=O)c4cc5cc(C(F)(F)P(=O)(O)O)ccc5s4)C(=O)N32)C1 [Compound 779]	IC50	3 to 30 µM

Each compound below has a reported value. Please supply its IC50.
1. CCC[C@H]1CC[C@H](NC(=O)c2cc3cc(C(F)P(=O)(O)O)ccc3s2)C(=O)N2[C@H](CC[C@H]2C(=O)N2C[C@@H](C#N)[C@H](c3ccccc3)C2)C1 (single isomer, unassigned) [Compound 240]
2. COC[C@@H]1CCN1c1ccncc1C1CN(C(=O)[C@@H]2CC[C@@H]3CCC[C@H](NC(=O)c4cc5cc(CP(=O)(O)O)ccc5s4)C(=O)N32)C1 [Compound 213]
3. Cc1ccncc1C1CN(C(=O)[C@@H]2CC[C@@H]3CC(C)C[C@H](NC(=O)c4cc5cc(CP(=O)(O)O)ccc5s4)C(=O)N32)C1 (stereo partly shown) [Compound 500]
4. N#C[C@@H]1CN(C(=O)[C@@H]2CC[C@@H]3CCCC[C@H](NC(=O)c4cc5cc(C(F)P(=O)(O)O)ccc5s4)C(=O)N32)C[C@H]1c1ccccc1 (single isomer, unassigned) [Compound 224]
5. O=C(N[C@H]1CCC[C@H]2CC[C@@H](C(=O)N3CC(c4cnccc4OC4COC4)C3)N2C1=O)c1cc2cc(C(F)P(=O)(O)O)ccc2s1 (stereo partly shown) [Compound 598]

Response:
1. ≤ 0.3 µM
2. 3 to 30 µM
3. 3 to 30 µM
4. ≤ 0.3 µM
5. 3 to 30 µM
